test system: human monocyte-derived dendritic cells (moDCs); test: DAMP screen: viability of human moDCs (CellTiter-Glo); conditions: 82.5 μM lipid + LPS; selected lipids, Table 1-3 (repeats Table 1-1)
Decide by Relative Viability (%) ± SD: equal to or exceeding 60% means Criterion met, less means Criterion not met.

INSERT INTO measurements (molecule, assignedclass) VALUES
  ('CCCCCCCCCCCCCCCCCCC(=O)OC[C@@H](O)COP(=O)([O-])OCC[N+](C)(C)C', 'Criterion not met'),
  ('CCCCCCCCCCCCCCCCCCCCCCCC(=O)OC[C@@H](O)COP(=O)([O-])OCC[N+](C)(C)C', 'Criterion met'),
  ('CCCCCCCCCCCCCCCCCCCCCC(=O)OC[C@@H](O)COP(=O)([O-])OCC[N+](C)(C)C', 'Criterion not met'),
  ('CCCCCCCCCCCC(=O)OC[C@@H](O)COP(=O)([O-])OCC[N+](C)(C)C', 'Criterion met'),
  ('CCCCCCCCCCCCCCCC(=O)OC[C@H](COP(=O)([O-])OCC[N+](C)(C)C)OC(=O)CCCC=O [POVPC, reference compound]', 'Criterion met'),
  ('CCCCCCCCCC(=O)OC[C@@H](O)COP(=O)([O-])OCC[N+](C)(C)C', 'Criterion met'),
  ('CCCCCCCCCCCCCCCC(=O)OC[C@H](COP(=O)([O-])OCC[N+](C)(C)C)OC(=O)CCCCCCCC(=O)O [PAzePC, reference compound]', 'Criterion met');

###

system: human monocyte-derived dendritic cells (moDCs); test: DAMP screen: viability of human moDCs (CellTiter-Glo); conditions: 82.5 μM lipid + LPS 1 μg/mL, 2 days; relative to LPS-treated moDCs; Table 1-1
// reported Relative Viability (%) ± SD for each item listed
propertyLabel: Relative Viability (%) ± SD

INSERT INTO results (molecule, targetundertest, valueobserved) VALUES
  ('CCCCCCCCCCCCCCCC(=O)O[C@H](CO)COP(=O)([O-])OCC[N+](C)(C)C', 'human monocyte-derived dendritic cells (moDCs)', '43.9%'),
  ('CCCCCCCCCCCCCCCC(=O)OC[C@H](COP(=O)([O-])OCC[N+](C)(C)C)OC(=O)CCCC(=O)O [PGPC, reference compound]', 'human monocyte-derived dendritic cells (moDCs)', '58.6%'),
  ('CCCCCCCCCCCCCCCCCCCCCCCC(=O)OC[C@@H](O)COP(=O)([O-])OCC[N+](C)(C)C', 'human monocyte-derived dendritic cells (moDCs)', '96.0%');

###

test: PAMP screen: viability of human moDCs with PRR agonist and 22:0 Lyso PC; assay type: cell-based; settings: human, human monocyte-derived dendritic cells (moDCs), Table 1-7; No PAMP, 20 μM 22:0 Lyso PC alone; human moDCs, 10 donors; read-out: Relative Viability (%) ± SD
propertyLabel: viability at 2 days, 20 μM

INSERT INTO results (mol, propertylabel, valueobserved) VALUES
  ('CCCCCCCCCCCCCCCCCCCCCC(=O)OC[C@@H](O)COP(=O)([O-])OCC[N+](C)(C)C', 'viability at 2 days, 20 μM', '120%');

###

tested on: human monocyte-derived dendritic cells (moDCs); assay: DAMP screen: viability of human moDCs (CellTiter-Glo); conditions: 82.5 μM lipid + LPS 1 μg/mL, 2 days; relative to LPS-treated moDCs; Table 1-1
// reported Relative Viability (%) ± SD for each item listed
propertyLabel: Relative Viability (%) ± SD

INSERT INTO measurements (compound, unitabbreviation, valueobserved) VALUES
  ('CCCCCCCCC(=O)OC[C@@H](O)COP(=O)([O-])OCC[N+](C)(C)C [09:0 LYSO PC]', '%', 95.4),
  ('CCCCCCCCCCCCCCCCCCCCCC(=O)OC[C@@H](O)COP(=O)([O-])OCC[N+](C)(C)C [22:0 LYSO PC]', '%', 14.6),
  ('CCCCCCCCCCC(=O)OC[C@@H](O)COP(=O)([O-])OCC[N+](C)(C)C [11:0 LYSO PC]', '%', 92.8),
  ('CCCCCCCCCC(=O)OC[C@@H](O)COP(=O)([O-])OCC[N+](C)(C)C [10:0 LYSO PC]', '%', 95.2),
  ('CCCCCCC(=O)OC[C@@H](O)COP(=O)([O-])OCC[N+](C)(C)C [07:0 LYSO PC]', '%', 93.9),
  ('CCCCCCCCCCCC(=O)OC[C@@H](O)COP(=O)([O-])OCC[N+](C)(C)C [12:0 LYSO PC]', '%', 91.1),
  ('CCCCCCCC/C=C\CCCCCCCC(=O)OC[C@@H](O)COP(=O)([O-])OCC[N+](C)(C)C [18:1 Δ^9 LYSO PC]', '%', 91.5),
  ('CCCCCCCCCCCCCCCCCCC(=O)OC[C@@H](O)COP(=O)([O-])OCC[N+](C)(C)C [19:0 LYSO PC]', '%', 2.7),
  ('CCCCCCCCCCCCCCCC(=O)OC[C@H](COP(=O)([O-])OCC[N+](C)(C)C)OC(=O)CCCCCCCC(=O)O [PAzePC, reference compound]', '%', 78.8),
  ('CCCCCC/C=C\CCCCCCCCC(=O)OC[C@@H](O)COP(=O)([O-])OCC[N+](C)(C)C [17:1 Δ^10 LYSO PC]', '%', 95.3),
  ('CCCCCCCCCCCCCCCC(=O)OC[C@H](COP(=O)([O-])OCC[N+](C)(C)C)OC(=O)CCCCCCCCCCCCC [16:0-14:0 PC]', '%', 87.4),
  ('CCCCCCCCCCCCCCCCCCCC(=O)OC[C@@H](O)COP(=O)([O-])OCC[N+](C)(C)C [20:0 LYSO PC]', '%', 6.0),
  ('CCCCCCCCCCCCCCCCCC(=O)O[C@H](COC(=O)CCCCCCCCCCCCCCC)COP(=O)([O-])OCC[N+](C)(C)C [16:0-18:0 PC]', '%', 88.8),
  ('CCCCCCCCCCCCCCCC(=O)OC[C@H](COP(=O)([O-])OCC[N+](C)(C)C)OC(=O)CCCC=O [POVPC, reference compound]', '%', 79.5),
  ('CCCCCCCCCCCCCCCCCC(=O)O[C@H](CO)COP(=O)([O-])OCC[N+](C)(C)C [2-18:0 LYSO PC, 2-stearoyl-sn-glycero-3-phosphocholine]', '%', 11.5),
  ('CCCCCCCC/C=C\CCCCCCCC(=O)O[C@H](COC(=O)CCCCCCCCCCCCCCC)COP(=O)([O-])OCC[N+](C)(C)C [16:0-18:1 PC (POPC)]', '%', 92.9),
  ('CCCCCCCCCCCCCCCC(=O)O[C@H](COC(=O)CCCCCCCCCCCCC)COP(=O)([O-])OCC[N+](C)(C)C [14:0-16:0 PC]', '%', 90.8),
  ('CCCCCCCCCCCCCCCCCCCCCCCCCC(=O)OC[C@@H](O)COP(=O)([O-])OCC[N+](C)(C)C [26:0 LYSO PC]', '%', 94.7),
  ('CCCCCCCCCCCCCCCCCC(=O)O[C@H](COC(=O)CCCCCCCCCCCCC)COP(=O)([O-])OCC[N+](C)(C)C [14:0-18:0 PC]', '%', 90.5),
  ('CCCCCCCCCCCCC(=O)OC[C@@H](O)COP(=O)([O-])OCC[N+](C)(C)C [13:0 LYSO PC]', '%', 93.2),
  ('CCCCCCCCCCCCCCC(=O)OC[C@@H](O)COP(=O)([O-])OCC[N+](C)(C)C [15:0 LYSO PC]', '%', 65.4),
  ('CCCCCCCC/C=C\CCCCCCCC(=O)O[C@H](CO)COP(=O)([O-])OCC[N+](C)(C)C [2-18:1 Δ9 LYSO PC]', '%', 97.7),
  ('CCCCCCCCCCCCCCCCCC(=O)OC[C@H](COP(=O)([O-])OCC[N+](C)(C)C)OC(=O)CCCCCCCCCCCCCCC [18:0-16:0 PC]', '%', 85.3),
  ('CCCCCCCC(=O)OC[C@@H](O)COP(=O)([O-])OCC[N+](C)(C)C [08:0 LYSO PC]', '%', 95.3),
  ('CCCCCCCCCCCCCCCC(=O)OC[C@@H](O)COP(=O)([O-])OCC[N+](C)(C)C [16:0 LYSO PC]', '%', 44.7),
  ('CCCCCCCCCCCCCCCC(=O)OC[C@H](COP(=O)([O-])OCC[N+](C)(C)C)OC(=O)CCCCCCCCCCC(CCCCCC)OC(=O)CCCCCCCCCCCCCCC (stereo partly shown) [16:0-(12-PAHSA) PC]', '%', 96.9),
  ('CCCCCC(=O)OC[C@@H](O)COP(=O)([O-])OCC[N+](C)(C)C [06:0 LYSO PC]', '%', 92.8),
  ('CCCCCCCCCCCCCCCCCC(=O)OC[C@H](COP(=O)([O-])OCC[N+](C)(C)C)OC(=O)CCCCCCCCCCCCC [18:0-14:0 PC]', '%', 86.1);

Values were extracted from patent US20240197869A1.
